Across several publications, the following IC50 results were reported for PIK3CA (human) (UniProt P42336).

The following compounds have reported results that may help.
                                   compound  property_name  value_observed
0  Nc1ncc(-c2nc(N3CCOCC3)c3ncc(-c4cc(NC(=O)C5CC5)ccc4F)cc3n2)cn1           IC50         < 50 nM
1   CC(=O)Nc1ccc(Oc2cc(=O)[nH]c3ccccc23)cc1           IC50         7280 nM
2  COc1ncc(-c2ccc3nccc(-c4ccc(CN(C)CCO)cc4)c3c2)cc1NS(=O)(=O)c1ccc(F)cc1F           IC50         0.59 nM
3  CNC(=O)[C@@H](C)Cn1cnc2ccc(-c3cnc(OC)c(NS(=O)(=O)c4cc(C)cc(Cl)c4)c3)cc2c1=O           IC50         8.14 nM
4  O=c1cc(Oc2cccc(-c3ccc(NCc4ccncc4)cc3)c2)c2ccccc2[nH]1           IC50         5250 nM
5  CNC(=O)C1(Cn2cnc3ccc(-c4cnc(OC)c(NS(=O)(=O)c5ccc(F)cc5Cl)c4)cc3c2=O)CC1           IC50         6.71 nM
6  CC(C)Cn1c(N2CCN(C(=O)[C@@H](C)O)CC2)nc2c(N3CCOCC3)nc(-c3cnc(N)nc3)nc21           IC50         < 10 nM
7  CN(C(=O)c1cnc2ccc(-c3ccc4oc(N)nc4c3)cn12)C1CCOCC1           IC50        < 100 nM
8  C[C@H](Nc1ccnc2ccnn12)c1cc2cccc(Cl)c2c(C(=O)NC2CCOCC2)n1           IC50      > 10000 nM
9  Nc1nc2cc(-c3ccc4nccc(-c5cccnc5)c4c3)ccc2o1           IC50        < 100 nM

# query: IC50 of entry Cc1ccccc1-n1c(Cn2nc(-c3ccc(F)cc3)c3c(N)ncnc32)cc2cccc(C)c2c1=O
> 10000 nM

And the next one, C[C@H](Nc1ncnc2[nH]cnc12)c1cc2cccc(Cl)c2c(OCC(C)(C)O)n1 ?
< 10000 nM

Also Cc1cccc2cc([C@H](C)NC3CCOCC3)n(-c3ccccc3)c(=O)c12 , if possible.
> 10000 nM

And for Cn1cc(/C=C2\Oc3cc(O)cc(O)c3C2=O)c2c(-c3ccc(C(N)=NO)cc3)ccnc21 ?
6 nM

Let us now turn to COc1cc(-c2cccc3cc(C(C)NC(=O)c4c(N)nn5cccnc45)c(-c4ccccc4)nc23)ccn1 (stereo not shown)
> 10000 nM

Query Cc1nc2ccc(-c3ccc4c(c3)CN(C(=O)N3CC[C@H](O)C[C@@H]3c3ccc(F)cc3)CCO4)cc2[nH]1 (racemic) next
500 to 1000 nM

====

Field pIC50: reported value for PIK3CA (human) (UniProt P42336); entries drawn from several documents.
pIC50: −log10 of the molar value.

Completed entries (count: 3):
In [3]: df
Out[3]:
                                   compound  value_observed
0  C[C@H](NC(=O)c1c(N)ncc2cccnc12)c1cc2cccc(Cl)c2c(=O)n1-c1ccccc1    5.00 to 6.00
1  CN(C)CC(=O)N[C@H]1CC[C@H](Nc2cc(-n3c(C(F)F)nc4ccccc43)nc(N3CCOCC3)n2)CC1          < 5.52
2  Cn1cc(/C=C2\Oc3cccc(O)c3C2=O)c2c(-c3ccc(C(=O)N4CCC(O)C4)cc3)ccnc21 (centres unmarked)            7.54

I would be grateful if you could share the reported pIC50 for Cc1cccc2cc(Cn3nc(-c4cc(O)cc(F)c4)c4c(N)ncnc43)n(C(C)C)c(=O)c12 .
> 5.00

Now this one: OCc1cccc(Nc2nc(-c3ccncc3)c3cc(-c4cnc5[nH]ccc5c4)ccc3n2)c1
7.00

Cn1cc(/C=C2\Oc3cccc(O)c3C2=O)c2c(-c3ccc(C(=O)N4CCNCC4)cc3)ccnc21 , same question.
7.57

Please do the same for Nc1nc2cc(-c3ccc4ncc(NCCCN5CCCC5)nc4c3)ccc2o1 as well.
> 7.00

Similarly, Nc1nc2cc(-c3ccc4ncc(C(=O)N5CCOCC5)n4c3)c(Cl)cc2o1 ?
> 5.00

Please do the same for Nc1nc2cc(-c3ccc4ncc(C(=O)N5CCOCC5)cc4c3)ccc2o1 as well.
> 5.00

====

Consider the following IC50 data for PIK3CA (human) (UniProt P42336), collected from several reports.
property.name: IC50 (nM)

Consider the worked cases shown below.
>>> df
                                        mol                           system  value_observed
0  N#Cc1ccc(-c2ccc3ncc4ccc(=O)n(-c5cccc(C(F)(F)F)c5)c4c3n2)cn1  PIK3CA (human) (UniProt P42336)              58
1  [2H]C([2H])([2H])C(c1nccc(-c2sc(NC(=O)N3CC[C@@H](C)[C@H]3C(N)=O)nc2C)n1)(C([2H])([2H])[2H])C([2H])([2H])[2H]  PIK3CA (human) (UniProt P42336)             4.5

(a) Cn1cc(/C=C2\Oc3cc(O)cc(O)c3C2=O)c2c(-c3ccc(F)c(C(=O)Nc4ccccc4)c3)ccnc21
(b) COc1ccc2c(n1)c(C=C1Oc3cccc(O)c3C1=O)cn2C
Given a and given b , which shows the smaller recorded IC50? Respond with the label that goes with your answer.
a

====

For reference, the following IC50 results for PIK3CA (human) (UniProt P42336) were taken from various sources.

Example cases with answers are listed next.
                                   molecule                           system   value_observed
0  CC(=O)Nc1ccc(F)c(-c2cnc3c(N4CCOCC4)nc(-c4cnc(N)nc4)nc3c2)c1  PIK3CA (human) (UniProt P42336)          < 50 nM
1  CCCCC(=O)N1CCC(n2nnc3cnc4ccc(-c5cnc(N)c(C(F)(F)F)c5)nc4c32)CC1  PIK3CA (human) (UniProt P42336)         < 100 nM
2  Cc1nc2ccc(-c3ccc4c(c3)CN(C(=O)N3CC[C@H](O)C3)CCO4)cc2[nH]1  PIK3CA (human) (UniProt P42336)  1000 to 3000 nM
3  Cc1nc2ccc(-c3ccc4c(c3)CN(C(=O)N3CCCCC3c3ccccc3)CCO4)cc2[nH]1 (centres unmarked)  PIK3CA (human) (UniProt P42336)     75 to 200 nM

If you can, please state the reported IC50 value of Nc1cccc(Oc2cc(=O)[nH]c3ccccc23)c1 .
106 nM

Then this molecule: Cn1cc(C=C2Oc3ccc(NC(=O)Nc4cccnc4)cc3C2=O)c2c(N3CCC(C(=O)NC4CCS(=O)(=O)C4)CC3)ccnc21 (centres unmarked)
7450 nM

Now consider CNC(=O)C(C)Cn1cnc2ccc(-c3cnc(C(F)(F)F)c(NS(=O)(=O)c4ccc(F)cc4Cl)c3)cc2c1=O (centres unmarked) and answer again.
0.56 nM

Would you kindly repeat that for COc1ncc(-c2ccc3ncc(C(=O)N4CCOCC4)n3c2)cc1NS(=O)(=O)c1ccccc1F ?
< 100 nM

====

Here's a roundup of IC50 values tested on PIK3CA (human) (UniProt P42336), taken from various published works.
property.name: IC50 (µM)

Recorded results for 6 compounds are shown here.
                                   compound  value_observed
0  O=c1cc(Oc2ccc(-c3cccnc3)cc2)c2ccccc2[nH]1            3.29
1  O=C(Nc1ccc(-c2nc(N3CCOCC3)c3ccn(CC(F)(F)F)c3n2)cc1)Nc1cccnc1           0.026
2  CCn1ccc2c(N3CCOCC3)nc(-c3ccc(NC(=O)Nc4ccc(C(=O)N5CCN(C6CCCC6)CC5)cc4)cc3)nc21          0.0065
3        COc1ccc(Oc2cc(=O)[nH]c3ccccc23)cc1              11
4  C[C@H](NC(=O)c1c(N)nn2cccnc12)c1cc2cccc(-c3cn(CCO)nn3)c2c(=O)n1-c1ccccc1            1.05
5  CC(=O)Nc1ccc(Oc2nc(-c3ccc4[nH]ccc4c3)nc3c2cnn3C)cc1           0.387

(1) FC(F)c1nc2ccccc2n1-c1cc(N2CCOCC2)nc(NCC2CCN(C3CCCCC3)CC2)n1
(2) CNC(=O)C(C)Cn1cnc2ccc(-c3cnc(OC)c(NS(=O)(=O)c4ccc(C)cc4C)c3)cc2c1=O (single isomer, unassigned)
Would you kindly point out which of 1 and 2 has the smaller IC50 figure? Reply with the label of the item you choose.
2
